- experimental system: Human immunodeficiency virus type 1 protease (Human immunodeficiency virus 1)
pKi: −log10 of the molar value.
Label T for high-side pKi (at or above 7) and F for low-side pKi (below it).

Illustrative cases are given below, each with its answer.
molecule	category
O=C(NC(Cc1ccccc1)C(O)CN1C/C=C\CCCCCCCC(c2ccccc2)OC1=O)O[C@H]1CO[C@H]2OCC[C@H]21 (stereo not given in full)	F
O=C(NC(Cc1ccccc1)C(O)CN1CCCCCCCCCCCCC(c2ccccc2)OC1=O)O[C@H]1CO[C@H]2OCC[C@H]21 (stereo not given in full)	F
C=CCCCCCCCCN(CC(O)C(Cc1ccccc1)NC(=O)O[C@H]1CO[C@H]2OCC[C@H]21)C(=O)OCCC=C (stereo not given in full)	F

Q: Test whether the molecule CC1C/C=C/CCCCCCCCOC(=O)N(CC(O)C(Cc2ccccc2)NC(=O)O[C@H]2CO[C@H]3OCC[C@H]32)C1 (stereo not given in full) records pKi of 7 or higher.
Result: T

Q: Test whether the molecule C=CCCCCCCCCOC(=O)N(CC(O)C(Cc1ccccc1)NC(=O)O[C@H]1CO[C@H]2OCC[C@H]21)C(C)CC=C (stereo not given in full) records pKi of 7 or higher.
Result: F

src = ChEMBL document CHEMBL1135191
